Recorded measurements of IC50, one per entry
Test system: influenza virus (strain A/NWS)
Assay Notes: microbe, parasite or virus in culture
Format: cell-based
Cond: MDCK, 48 h, read-out: IC50 Value Flu A/NWS
Property: IC50 (µM)

{"columns": ["Record Smiles", "Unit Descriptor", "Measurement"],
 "data": [
  ["Nc1ncnc2c1ncn2[C@@H]1O[C@H](CO)C[C@H]1O", "µM", 800],
  ["O=c1ccn([C@@H]2O[C@H](CO)C[C@H]2O)c(=O)[nH]1", "µM", 85],
  ["Nc1nc2c(ncn2[C@@H]2O[C@H](CO)C[C@H]2O)c(=O)[nH]1", "µM", 270],
  ["Nc1ccn([C@@H]2O[C@H](CO)C[C@H]2O)c(=O)n1", "µM", 900]
]}

###

Tested on: MDCK cells
Assay Notes: cells
Format: cell-based
Cond: Canis lupus familiaris, 48 h, read-out: IC50 Value Tox (beside Flu A/NWS)
# IC50 annotations

{"columns": ["Record Smiles", "Unit Descriptor", "Censor Symbol", "IC50"],
 "data": [
  ["Nc1ncnc2c1ncn2[C@@H]1O[C@H](CO)C[C@H]1O", "mM", "=", 1.4],
  ["O=c1ccn([C@@H]2O[C@H](CO)C[C@H]2O)c(=O)[nH]1", "mM", "=", 12.5],
  ["CO[C@H]1[C@@H](O)[C@H](n2ccc(=O)[nH]c2=O)O[C@@H]1CO", "mM", ">", 50],
  ["Nc1nc2c(ncn2[C@@H]2O[C@H](CO)C[C@H]2O)c(=O)[nH]1", "mM", "=", 2.1],
  ["CO[C@H]1[C@@H](O)[C@H](n2ccc(N)nc2=O)O[C@@H]1CO", "mM", ">", 50],
  ["CO[C@H]1[C@@H](O)[C@H](n2cnc3c(=O)[nH]c(N)nc32)O[C@@H]1CO", "mM", ">", 50],
  ["Nc1ccn([C@@H]2O[C@H](CO)C[C@H]2O)c(=O)n1", "mM", "=", 5],
  ["CO[C@H]1[C@@H](O)[C@H](n2cnc3c(N)ncnc32)O[C@@H]1CO", "mM", ">", 50]
]}
